A collection of compounds and their measured IC50 at 72 h
assay: MTT cell viability assay, normal cells; conditions: human;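 further: fibroblasts served as non-cancer comparison line for selectivity versus melanoma cells, MTT reduction read as absorbance at 570 nm after 2 h dye exposure, compounds in ≤0.1% DMSO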
test readout: IC50 at 72 h

* O=c1c(-c2ccc(O)cc2)coc2cc(O)cc(O)c12 | 56.8 µM
* COc1cc(-c2cc(=O)c3c(O)cc(O)cc3o2)cc(OC)c1O | 56.4 µM
* COc1cc(-c2oc3cc(O)cc(O)c3c(=O)c2O)ccc1O | 46.2 µM

###

assay: Neutral red uptake (NRU) assay, normal cells; settings: human, human skin fibroblasts (CCD25Sk)
A collection of molecules and their measured IC50 at 72 h
test readout: IC50 at 72 h

• CC1OC(OCC2OC(Oc3cc(O)c4c(=O)cc(-c5ccc(O)cc5)oc4c3)C(O)C(O)C2O)C(O)C(O)C1O (stereo not shown) [Compound 5, apigenin 7-O-rutinoside] = > 200 µM
• COc1ccc(C2CC(=O)c3c(O)cc(OC4OC(CO)C(O)C(O)C4OC4OC(C)C(O)C(O)C4O)cc3O2)cc1O (stereo not shown) [Compound 35, hesperetin 7-O-neohesperidoside] = > 200 µM
• O=C(O)C1OC(Oc2cc(O)c3c(=O)cc(-c4ccc(O)cc4)oc3c2)C(O)C(O)C1O (stereo not shown) [Compound 4, apigenin 7-O-glucuronide] = > 200 µM
• COc1ccc(C2CC(=O)c3c(O)cc(OC4OC(COC5OC(C)C(O)C(O)C5O)C(O)C(O)C4O)cc3O2)cc1O (stereo not shown) [Compound 34, hesperetin 7-O-rutinoside] = > 200 µM
• COc1cc(O)c2c(=O)c(O)c(-c3ccc(O)c(O)c3)oc2c1 = 38.4 µM
• COc1c(O)cc(O)c2c(=O)c(O)c(-c3ccc(O)cc3)oc12 = 64.8 µM
• O=c1c(O)c(-c2ccc(O)cc2)oc2cc(O)cc(O)c12 = 51.1 µM
• O=c1c(O[C@@H]2O[C@H](CO)[C@@H](O)[C@H](O)[C@H]2O)c(-c2ccc(O)cc2)oc2cc(O)cc(O)c12 [Compound 20, kaempferol 3-O-glucoside] = > 200 µM
• O=C(O)C1OC(Oc2c(-c3ccc(O)cc3)oc3cc(O)cc(O)c3c2=O)C(O)C(O)C1O (stereo not shown) [Compound 21, kaempferol 3-O-glucuronide] = > 200 µM
• COc1ccc(-c2oc3c(CC=C(C)C)c(O[C@@H]4O[C@H](CO)[C@@H](O)[C@H](O)[C@H]4O)cc(O)c3c(=O)c2O[C@@H]2O[C@@H](C)[C@H](O)[C@@H](O)[C@H]2O)cc1 = > 200 µM
• C[C@@H]1O[C@@H](OC[C@H]2O[C@@H](Oc3c(-c4ccc(O)c(O)c4)oc4cc(O)cc(O)c4c3=O)[C@H](O)[C@@H](O)[C@@H]2O)[C@H](O)[C@H](O)[C@H]1O [Compound 28, quercetin 3-O-rutinoside] = > 200 µM
• O=c1c(-c2ccc(O)cc2)coc2cc(O)ccc12 = > 200 µM
• O=c1c(O)c(-c2cc(O)c(O)c(O)c2)oc2cc(O)ccc12 = > 200 µM

###

tested on: A375 melanoma cells; experiment: MTT cell viability assay, A375; conditions: read-out: IC50, cytotoxic activity, MTT test; A375, 48 h;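 further: Read-out is formazan absorbance at 570 nm after 2 h with MTT, with compounds in at most 0.1% v/v DMSO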
test readout: IC50

* O=c1cc(-c2ccc(O)c(O)c2)oc2cc(O)cc(O)c12 | 38.2 µM
